These data points were gathered from ChEMBL document CHEMBL1131806.

# tgt: Proteinase-activated receptor 1 (Homo sapiens)
# Sequence (P25116 whole entry): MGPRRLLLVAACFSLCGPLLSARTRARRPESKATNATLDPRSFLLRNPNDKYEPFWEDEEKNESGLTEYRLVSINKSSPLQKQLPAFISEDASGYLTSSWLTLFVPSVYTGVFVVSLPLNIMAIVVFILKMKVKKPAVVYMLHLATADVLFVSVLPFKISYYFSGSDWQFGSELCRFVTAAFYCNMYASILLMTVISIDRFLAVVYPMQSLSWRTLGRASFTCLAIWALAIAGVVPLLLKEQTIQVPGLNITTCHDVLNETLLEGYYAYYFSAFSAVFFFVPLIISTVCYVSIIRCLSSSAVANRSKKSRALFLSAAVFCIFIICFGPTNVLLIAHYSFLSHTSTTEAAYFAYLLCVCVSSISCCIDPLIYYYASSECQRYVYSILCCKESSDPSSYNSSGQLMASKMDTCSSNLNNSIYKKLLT
# protocol: Inhibitory activity against binding to Thrombin receptor 1 (PAR-1)
observed.property: IC50 (nM)
Respond numerically; units are nM and should not be typed.

Below are worked cases with known answers.
CCc1ccc(Cn2ccc3c4c(N)nc(N)nc4ccc32)cc1	4500
CC(C)(C)c1ccc(Cn2ccc3c4c(N)nc(N)nc4ccc32)cc1	1230
CC(C)c1ccc(Cn2ccc3c4c(N)nc(N(C)C)nc4ccc32)cc1	100
CCOc1ccc(Cn2ccc3c4c(N)nc(N)nc4ccc32)cc1	2630
Cc1ccc2cc(Cn3ccc4c5c(N)nc(N)nc5ccc43)ccc2c1	1750

Shift focus to the following entry.
Summary for this molecule, CC(C)c1ccc(Cn2ccc3c4c(N)nc(NCCO)nc4ccc32)cc1 : IC50 is 4900
